growth by entry:
Test system: TK-10 renal
run description: NCI-60 one-dose screen, 48 h (100 = growth as untreated, 0 = no growth, -100 = all killed)
experimental setup: 10 µM unless noted
The panel holds about 83,000 compounds, 20% with a hit somewhere; the sample as a whole holds those more often. Calls of active or inactive are those of the source. How the source made its calls: active means growth percent below 10; inactive means the rest.

{"columns": ["compound", "growth"],
 "data": [
  ["Cc1cc(=O)n2n1-c1ccc(Cl)cc1NC(=O)C2", "117% (inactive)"],
  ["C/C(=C\\CCc1ccsc1)CC/C=C(\\C)CCCN1CCC(CO)CC1", "22.6% (inactive)"],
  ["CN(C)c1nc(N)nc(Cn2c(-c3nonc3N)nc3ccccc32)n1", "107% (inactive)"],
  ["NC(=O)c1ccccc1NC(=O)c1ccccc1Cl", "141% (inactive)"],
  ["O=C1NCN(CCO)CN1", "107% (inactive)"],
  ["CCCCOc1ccc(C(C)(C)c2ccc(OCCCC)cc2)cc1", "107% (inactive)"],
  ["Oc1[nH]c2ccccc2c1/C=c1/ccc2c(c1)N=C(c1cc(F)cc(F)c1)N=2", "114% (inactive)"],
  ["Nc1ncc(-c2cnn(C3CCNCC3)c2)cc1-c1nc2cc(Cl)ccc2o1", "-94.1% (active)"],
  ["COC(=O)[C@]1(CCSC)N[C@H](c2cn(-c3ccccc3)nc2C)[C@@H]2C(=O)N(c3ccccc3)C(=O)[C@@H]21", "118% (inactive)"],
  ["CCC(C)CC(CC)NCCN1CCN(C(CC)CC(C)CC)C1=S (stereo unspecified)", "58.5% (inactive)"],
  ["c1ccc(-c2nnc(Nc3nnc(-c4ccccc4)s3)s2)cc1", "142% (inactive)"]
]}
